# MEASUREMENT_TARGET: Eis_Mtb (Mycobacterium tuberculosis, UniProt P9WFK7)
# Sequence (P9WFK7 2-402 limits assumed): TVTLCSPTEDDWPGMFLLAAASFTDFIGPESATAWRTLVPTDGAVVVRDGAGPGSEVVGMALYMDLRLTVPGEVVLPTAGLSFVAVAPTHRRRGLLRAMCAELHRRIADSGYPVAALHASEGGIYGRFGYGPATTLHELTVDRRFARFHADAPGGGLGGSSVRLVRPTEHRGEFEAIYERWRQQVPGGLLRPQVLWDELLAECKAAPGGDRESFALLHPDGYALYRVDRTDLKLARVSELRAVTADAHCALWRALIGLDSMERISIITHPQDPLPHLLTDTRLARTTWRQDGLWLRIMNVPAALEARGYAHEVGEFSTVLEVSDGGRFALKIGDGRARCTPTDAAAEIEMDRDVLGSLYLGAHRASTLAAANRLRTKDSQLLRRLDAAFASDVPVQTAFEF
# TEST_PROTOCOL: biochemical
# Format: biochemical
pIC50: −log10 of the molar value.
PROPERTY_LABEL: pIC50

>>> df
                                   compound                        measurement_target  result
0  COC(=O)c1cc2occc2n1CC(=O)c1cccc(OC)c1 [if]  Eis_Mtb (Mycobacterium tuberculosis, UniProt P9WFK7)  < 3.70
1  CCC(=O)Cn1c(C(=O)OC)cc2occc21 [Compound 1l]  Eis_Mtb (Mycobacterium tuberculosis, UniProt P9WFK7)  < 3.70
